Hi there, I'd appreciate the recorded MFI at 33.3 nM for every entry that follows.
# assay-target: human CTLA-4 (huCTLA4), on stably transduced CHO cells (human) (UniProt P16410)
# Sequence (P16410 36-223): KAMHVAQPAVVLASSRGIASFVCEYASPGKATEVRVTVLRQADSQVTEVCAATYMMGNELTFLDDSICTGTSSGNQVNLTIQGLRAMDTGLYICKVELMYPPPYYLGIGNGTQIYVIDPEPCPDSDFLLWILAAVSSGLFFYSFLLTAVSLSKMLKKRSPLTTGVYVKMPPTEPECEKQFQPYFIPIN
# experiment: flow cytometry on CHO cells stably expressing huCTLA4, 33.3 nM Fc fusion, PE anti-human Fc
All answers are understood in MFI, so give the number only.

Which MFI at 33.3 nM is reported for this binder? variant CD80 IgV-Fc Q27H/E35D/M47I (Fc fusion) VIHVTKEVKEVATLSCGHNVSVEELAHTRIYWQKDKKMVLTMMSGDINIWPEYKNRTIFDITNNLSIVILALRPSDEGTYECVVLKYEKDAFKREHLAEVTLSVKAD 27500

Please give the result for variant CD80 IgV-Fc E35D/M47V (Fc fusion) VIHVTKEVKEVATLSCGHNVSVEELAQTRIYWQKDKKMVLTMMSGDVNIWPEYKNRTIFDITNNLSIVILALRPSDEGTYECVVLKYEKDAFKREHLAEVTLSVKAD too. 20900

Okay, and variant CD80 IgV-Fc H18Y/E35D/M47L/A71G/A91S (Fc fusion) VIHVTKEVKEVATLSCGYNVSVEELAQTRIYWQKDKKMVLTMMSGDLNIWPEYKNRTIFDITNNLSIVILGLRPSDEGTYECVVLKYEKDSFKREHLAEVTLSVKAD ? 24200

// query: variant CD80 IgV-Fc E35D/D46E/L85M (Fc fusion) VIHVTKEVKEVATLSCGHNVSVEELAQTRIYWQKDKKMVLTMMSGEMNIWPEYKNRTIFDITNNLSIVILALRPSDEGTYECVVMKYEKDAFKREHLAEVTLSVKAD 30300

Field entry: variant CD80 IgV-Fc Q27L/E35D/M47V/I61V/L85M (Fc fusion) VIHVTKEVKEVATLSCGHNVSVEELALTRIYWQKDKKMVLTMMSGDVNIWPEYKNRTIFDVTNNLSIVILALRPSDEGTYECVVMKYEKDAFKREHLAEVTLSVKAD 27900

Check variant CD80 IgV-Fc E35D/D46E (Fc fusion) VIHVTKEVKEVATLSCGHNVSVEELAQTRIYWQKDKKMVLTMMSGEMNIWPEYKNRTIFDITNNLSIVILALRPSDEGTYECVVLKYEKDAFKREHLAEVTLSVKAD too. 27900

Now give it for variant CD80 IgV-Fc M47I/A71G (Fc fusion) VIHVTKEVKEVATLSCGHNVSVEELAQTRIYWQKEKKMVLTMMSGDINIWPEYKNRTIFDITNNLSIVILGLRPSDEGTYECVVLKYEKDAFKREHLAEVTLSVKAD too. 27800

Thanks! And variant CD80 IgV-Fc D46V/M47I/A71G (Fc fusion) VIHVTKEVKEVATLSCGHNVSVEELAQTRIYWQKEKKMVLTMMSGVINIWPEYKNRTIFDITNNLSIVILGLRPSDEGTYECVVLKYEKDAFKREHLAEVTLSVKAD ? 28400

Also variant CD80 IgV-Fc E35D/D46E/M47I (Fc fusion) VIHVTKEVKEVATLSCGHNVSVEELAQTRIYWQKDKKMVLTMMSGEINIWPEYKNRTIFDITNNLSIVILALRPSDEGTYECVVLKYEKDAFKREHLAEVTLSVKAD ? 21400
